target: HLA-A*11:01; assay: IEDB peptide-MHC binding, purified MHC/direct/fluorescence; filed as Kd, often an IC50 or EC50 that approximates it; bounds were set here for any values at or beyond the usual limits of such assays; settings: source organism: Lassa virus Josiah
measured_property: pKd
Numbers only, as −log10 of the molar value.

So what's the measured pKd for this one? `VSNRCPICK`
7.33

* * *

target: HLA-B*15:01; test: IEDB peptide-MHC binding, purified MHC/competitive/radioactivity; filed as Kd, often an IC50 or EC50 that approximates it; bounds were set here for any values at or beyond the usual limits of such assays; conditions: source organism: Dengue virus 3 Singapore/8120/1995
measured_property: pKd
Give bare numbers, as −log10 of the molar value.

So what's the measured pKd for this one? `HMIAGVLFTF`
8.69

* * *

molecular target: HLA-A*32:01; assay: IEDB peptide-MHC binding, purified MHC/competitive/radioactivity; filed as Kd, often an IC50 or EC50 that approximates it; bounds were set here for any values at or beyond the usual limits of such assays; conditions: source organism: Dengue virus 4 Philippines/H241/1956
measured_property: Kd (µM)
Answers are plain numbers, in µM.

So what's the measured Kd for this one? `ELNYVLWEGG`
9.34

* * *

molecular target: HLA-A*02:03; test: IEDB peptide-MHC binding, purified MHC/competitive/radioactivity; filed as Kd, often an IC50 or EC50 that approximates it; bounds were set here for any values at or beyond the usual limits of such assays; details: source organism: Dengue virus 4 Dominica/814669/1981
measured_property: Kd (nM)
Answers are plain numbers, in nM.

So what's the measured Kd for this one? `KMSPGYVLGV`
0.57

* * *

target: HLA-A*02:03; assay: IEDB peptide-MHC binding, purified MHC/competitive/radioactivity; filed as Kd, often an IC50 or EC50 that approximates it; bounds were set here for any values at or beyond the usual limits of such assays; conditions: source organism: Lassa virus Josiah
measured_property: Kd (µM)
Answers are plain numbers, in µM.

So what's the measured Kd for this one? `CNYSKYWYL`
7.13

* * *

biological target: HLA-A*11:01; assay: IEDB peptide-MHC binding, purified MHC/direct/fluorescence; filed as Kd, often an IC50 or EC50 that approximates it; bounds were set here for any values at or beyond the usual limits of such assays; conditions: source organism: Rickettsia prowazekii
measured_property: Kd

{"residue_string": "IYSAEFKNY", "Kd": "≥ 20 µM"}

So what's the measured Kd for this one? `QFAGGSFDF`
≥ 10 µM

* * *

target: HLA-B*46:01; assay: IEDB peptide-MHC binding, purified MHC/direct/fluorescence; filed as Kd, often an IC50 or EC50 that approximates it; bounds were set here for any values at or beyond the usual limits of such assays; settings: source organism: Marburg virus - Musoke, Kenya, 1980
pKd: −log10 of the molar value.
measured_property: pKd

{"residue_string": "ISDPLTSGL", "measured_property": "pKd", "data_value": "≤ 4.70"}

So what's the measured pKd for this one? `IHLDKGGQF`
≤ 4.70

* * *

biological target: HLA-A*24:03; assay: IEDB peptide-MHC binding, purified MHC/competitive/fluorescence; filed as Kd, often an IC50 or EC50 that approximates it; bounds were set here for any values at or beyond the usual limits of such assays; settings: source organism: Vibrio antiquarius
pKd: −log10 of the molar value.
measured_property: pKd

So what's the measured pKd for this one? `FDLFGITLY`
≤ 4.70

* * *

What pKd was measured for each of the following?
biological target: HLA-A*26:01; assay: IEDB peptide-MHC binding, purified MHC/direct/fluorescence; filed as Kd, often an IC50 or EC50 that approximates it; bounds were set here for any values at or beyond the usual limits of such assays; conditions: source organism: Ravn virus - Ravn, Kenya, 1987
pKd: −log10 of the molar value.

{"residue_string": "IHLDKGGQF", "pKd": "≤ 4.70"}

So what's the measured pKd for this one? `ISDPLTSGL`
≤ 4.70

* * *

target: HLA-A*03:01; experiment: IEDB peptide-MHC binding, purified MHC/direct/fluorescence; filed as Kd, often an IC50 or EC50 that approximates it; bounds were set here for any values at or beyond the usual limits of such assays; conditions: source organism: Listeria monocytogenes serotype 4b str. H7858
What Kd was measured for each of the following?

{"residue_string": "FPDGKPFTL", "target_entity": "HLA-A*03:01", "Kd": "≥ 20 µM"}

Next up:
So what's the measured Kd for this one? `ERYPGGVSL`
≥ 20 µM

* * *

biological target: HLA-B*27:20; test: IEDB peptide-MHC binding, purified MHC/competitive/fluorescence; filed as Kd, often an IC50 or EC50 that approximates it; bounds were set here for any values at or beyond the usual limits of such assays; settings: source organism: Bacillus anthracis str. A0488
measured_property: pKd
Give bare numbers, as −log10 of the molar value.

So what's the measured pKd for this one? `RFFKHFMSL`
7.79

* * *

target: HLA-C*07:02; test: IEDB peptide-MHC binding, purified MHC/direct/fluorescence; filed as Kd, often an IC50 or EC50 that approximates it; bounds were set here for any values at or beyond the usual limits of such assays; conditions: source organism: Homo sapiens
measured_property: pKd
Give bare numbers, as −log10 of the molar value.

{"residue_string": "YYNAFHWAI", "target_entity": "HLA-C*07:02", "pKd": 6.15}

Next up:
So what's the measured pKd for this one? `YFYYNAFHW`
5.69

* * *

molecular target: HLA-B*40:01; experiment: IEDB peptide-MHC binding, purified MHC/direct/fluorescence; filed as Kd, often an IC50 or EC50 that approximates it; bounds were set here for any values at or beyond the usual limits of such assays; details: source organism: Mycobacterium tuberculosis variant bovis
measured_property: Kd (nM)
Answers are plain numbers, in nM.

So what's the measured Kd for this one? `FEGIAVLGL`
67.6

* * *

molecular target: HLA-A*26:03; assay: IEDB peptide-MHC binding, purified MHC/direct/fluorescence; filed as Kd, often an IC50 or EC50 that approximates it; bounds were set here for any values at or beyond the usual limits of such assays; details: source organism: Vibrio vulnificus YJ016
pKd: −log10 of the molar value.
measured_property: pKd

So what's the measured pKd for this one? `KRFYQTVGF`
≤ 4.70

* * *

molecular target: HLA-B*40:01; test: IEDB peptide-MHC binding, purified MHC/direct/fluorescence; filed as Kd, often an IC50 or EC50 that approximates it; bounds were set here for any values at or beyond the usual limits of such assays; conditions: source organism: Influenza A virus (A/swine/Cotes d'Armor/800/00(H1N2))
measured_property: Kd

So what's the measured Kd for this one? `GMDPRMCSL`
≥ 20 µM

* * *

target: HLA-B*18:01; assay: IEDB peptide-MHC binding, purified MHC/competitive/fluorescence; filed as Kd, often an IC50 or EC50 that approximates it; bounds were set here for any values at or beyond the usual limits of such assays; conditions: source organism: Campylobacter jejuni subsp. jejuni NCTC 11168 = ATCC 700819
measured_property: Kd (µM)
Answers are plain numbers, in µM.

So what's the measured Kd for this one? `LELAEITAE`
0.511

* * *

target: HLA-A*01:01; test: IEDB peptide-MHC binding, purified MHC/direct/fluorescence; filed as Kd, often an IC50 or EC50 that approximates it; bounds were set here for any values at or beyond the usual limits of such assays; details: source organism: Clostridium botulinum
measured_property: Kd

So what's the measured Kd for this one? `RVYINVVVK`
≥ 20 µM

* * *

target: HLA-B*27:05; test: IEDB peptide-MHC binding, purified MHC/direct/fluorescence; filed as Kd, often an IC50 or EC50 that approximates it; bounds were set here for any values at or beyond the usual limits of such assays; settings: source organism: Lake Victoria marburgvirus - Popp
pKd: −log10 of the molar value.
measured_property: pKd

Query pKd on HLA-B*27:05 for `GELRKAICL`
≤ 4.70

* * *

biological target: HLA-A*11:01; assay: IEDB peptide-MHC binding, purified MHC/direct/fluorescence; filed as Kd, often an IC50 or EC50 that approximates it; bounds were set here for any values at or beyond the usual limits of such assays; details: source organism: Salmonella enterica
measured_property: Kd

So what's the measured Kd for this one? `RPQLGVGDV`
≥ 20 µM

* * *

molecular target: HLA-A*02:17; experiment: IEDB peptide-MHC binding, purified MHC/competitive/radioactivity; filed as Kd, often an IC50 or EC50 that approximates it; bounds were set here for any values at or beyond the usual limits of such assays; conditions: source organism: Dengue virus 2 Thailand/NGS-C/1944
What Kd was measured for each of the following?
Give bare numbers, in nM.

Hello, I would appreciate it if you could give Kd for each entry below.
1. GLFPVSIPI
2. LLVISGLFPV

[69.9, 45.5]

* * *

target: HLA-B*15:02; assay: IEDB peptide-MHC binding, purified MHC/competitive/fluorescence; filed as Kd, often an IC50 or EC50 that approximates it; bounds were set here for any values at or beyond the usual limits of such assays; details: source organism: Rickettsia prowazekii str. Madrid E
measured_property: Kd (nM)
Numbers only, in nM.

So what's the measured Kd for this one? `GLYQGIVGF`
59.6
